FYI, the data here is from patent US5710179A.

System: Meth A sarcoma
METHOD: Antitumor activity on mouse with carcinoma (Meth A sarcoma, i.p., 40 days)
Type: in vivo, BALB/c male mice
COND: 0.0005 μg/0.2 ml/mouse i.p. twice a week; 40 days; control 28.1 ± 0.2
For each of the compounds below, state its Average day surviving.
Answers are plain numbers, in days.

Worked set:
* CC(C)=CCc1cc(/C=C/C(=O)O)cc(CC=C(C)C)c1O [compound 4] | 34.9
* CC(C)=CCc1cc(/C=C/C(=O)O)cc(CC=C(C)C)c1O [compound 5] | 32.6
* CC(C)=CCc1cc(/C=C/C(=O)O)cc(CC=C(C)C)c1O [compound 1] | 33.5

Below is a list of compounds. For each, state its recorded Average day surviving.
1. CC(C)=CCc1cc(/C=C/C(=O)O)cc(CC=C(C)C)c1O [compound 2]
2. CC(C)=CCc1cc(/C=C/C(=O)O)cc(CC=C(C)C)c1O [compound 3]

Response:
1: 32.3; 2: 31.1
